Can you tell me Levator ani muscle weight for the items I'm about to list?
System: intact male Sprague-Dawley rats
MEASUREMENT NOTES: Anabolic and androgenic activity in intact male rats, daily oral gavage
Format: in vivo, rat
RUN CONDITIONS: 0.75 mg/day oral

These solved cases illustrate the format of a correct answer.
C[C@](O)(COc1ccc(Cl)c(F)c1)C(=O)Nc1ccc(C#N)c(C(F)(F)F)c1
125%±10%
C[C@](O)(COc1ccc(C#N)cc1)C(=O)Nc1ccc(C#N)c(Cl)c1
118%±7%
C[C@](O)(COc1ccc(C#N)c(F)c1)C(=O)Nc1ccc(C#N)c(C(F)(F)F)c1
142%±10%

# evaluate next
Req: Suppose we examine the molecule `C[C@](O)(COc1ccc(C#N)cc1)C(=O)Nc1ccc(C#N)c(C(F)(F)F)c1` ; what Levator ani muscle weight value has been reported?
Resp: 125%±9%
